Let's look at some compounds and their measured kinase still bound, per cent of control.
tested system: MAP2K4 (human) (UniProt P45985)
Sequence (P45985 whole entry, looked up): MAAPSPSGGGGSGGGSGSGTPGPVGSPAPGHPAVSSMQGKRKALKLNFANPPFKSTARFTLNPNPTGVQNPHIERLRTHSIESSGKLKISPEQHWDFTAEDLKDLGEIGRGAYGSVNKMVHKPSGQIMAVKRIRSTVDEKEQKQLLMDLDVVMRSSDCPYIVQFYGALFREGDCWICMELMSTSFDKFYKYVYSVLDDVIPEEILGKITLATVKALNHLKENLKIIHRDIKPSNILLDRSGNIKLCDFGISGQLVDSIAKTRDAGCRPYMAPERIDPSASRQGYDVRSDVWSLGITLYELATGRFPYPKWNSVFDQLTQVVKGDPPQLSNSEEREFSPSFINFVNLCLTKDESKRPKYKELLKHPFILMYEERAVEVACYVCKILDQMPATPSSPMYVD
assay name: KINOMEscan competition binding
test conditions: compound 10.0 µM
Provide only the numeric value, understood in %.

Example results:
- compound: "CCOc1cc(N2CCC(O)CC2)ccc1Nc1ncc2c(n1)N(C)c1ccccc1C(=O)N2C"
  value measured: 100
- compound: "CCCS(=O)(=O)Nc1ccc(F)c(C(=O)c2c[nH]c3ncc(Cl)cc23)c1F"
  value measured: 6.6
- compound: "COc1cc2c(Nc3ccc(NC(=O)c4ccccc4)cc3)ncnc2cc1OCCCN1CCOCC1"
  value measured: 100
- compound: "CCN(CCO)CCCOc1ccc2c(Nc3cc(CC(=O)Nc4cccc(F)c4)[nH]n3)ncnc2c1"
  value measured: 100

**Q:** # kinase still bound, per cent of control lookup, item O=c1[nH]c2ccccc2n1C1CCN(Cc2ccc(-c3nc4cc5[nH]cnc5cc4nc3-c3ccccc3)cc2)CC1
**A:** 94

**Q:** // returns reported kinase still bound, per cent of control for input N#C/C(=C1/Nc2ccccc2S1)c1ccnc(NCCc2cccnc2)n1
**A:** 1.1

**Q:** Looking for the measured kinase still bound, per cent of control of CNC(=O)Nc1ccc(-c2nc(N3CC4CCC(C3)O4)c3cnn(C4CCC5(CC4)OCCO5)c3n2)cc1 , can you help?
**A:** 90

**Q:** Entry C=CC(=O)Nc1ccc(C(=O)c2sc(Nc3ccc(N4CCN(C)CC4)cc3OC)nc2N)cc1 has what kinase still bound, per cent of control?
**A:** 24

**Q:** // returns reported kinase still bound, per cent of control for input N#Cc1cc(-c2ccnc(Nc3ccc(-n4cnc(-c5cccnc5)n4)cc3)n2)cc(N2CCOCC2)c1
**A:** 2.8

**Q:** Param item = CC1=C(C(=O)Nc2cc3cn[nH]c3cc2F)C(c2ccc(C(F)(F)F)cc2)CC(=O)N1 (configuration not stated) ; retrieve measured kinase still bound, per cent of control.
**A:** 71

----------
tested system: CDKL1 (human) (UniProt Q00532)
Sequence (Q00532 whole entry, looked up): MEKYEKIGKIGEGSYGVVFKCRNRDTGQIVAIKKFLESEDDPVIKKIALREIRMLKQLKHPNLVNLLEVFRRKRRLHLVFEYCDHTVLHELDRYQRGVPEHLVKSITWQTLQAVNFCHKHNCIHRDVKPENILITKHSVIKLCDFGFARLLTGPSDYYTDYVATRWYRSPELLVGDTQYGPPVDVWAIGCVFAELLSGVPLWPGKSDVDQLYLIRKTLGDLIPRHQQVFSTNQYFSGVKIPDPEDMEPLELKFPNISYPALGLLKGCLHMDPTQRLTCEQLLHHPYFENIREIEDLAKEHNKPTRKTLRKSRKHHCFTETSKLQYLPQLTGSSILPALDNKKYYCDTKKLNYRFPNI
assay name: KINOMEscan competition binding
test conditions: compound 10.0 µM
value type: kinase still bound, per cent of control (%)
The reply should be a number in %, with the unit left off.

- molecule: "N#Cc1cc(-c2ccnc(Nc3ccc(-n4cnc(-c5cccnc5)n4)cc3)n2)cc(N2CCOCC2)c1"
  kinase still bound, per cent of control (%): 34
- molecule: "CC1=C(C(=O)Nc2cc3cn[nH]c3cc2F)C(c2ccc(C(F)(F)F)cc2)CC(=O)N1 (centres undefined)"
  kinase still bound, per cent of control (%): 78
- molecule: "CNC(=O)Nc1ccc(-c2nc(N3CC4CCC(C3)O4)c3cnn(C4CCC5(CC4)OCCO5)c3n2)cc1"
  kinase still bound, per cent of control (%): 84

Continue with the molecule presented below.
**Q:** Give the reported kinase still bound, per cent of control for COc1cc2ncnc(Nc3cccc(Cl)c3)c2cc1OC (system: CDKL1 (human) (UniProt Q00532)).
**A:** 90

----------
tested system: UniProt:P42338
Sequence (P42338 whole entry, looked up): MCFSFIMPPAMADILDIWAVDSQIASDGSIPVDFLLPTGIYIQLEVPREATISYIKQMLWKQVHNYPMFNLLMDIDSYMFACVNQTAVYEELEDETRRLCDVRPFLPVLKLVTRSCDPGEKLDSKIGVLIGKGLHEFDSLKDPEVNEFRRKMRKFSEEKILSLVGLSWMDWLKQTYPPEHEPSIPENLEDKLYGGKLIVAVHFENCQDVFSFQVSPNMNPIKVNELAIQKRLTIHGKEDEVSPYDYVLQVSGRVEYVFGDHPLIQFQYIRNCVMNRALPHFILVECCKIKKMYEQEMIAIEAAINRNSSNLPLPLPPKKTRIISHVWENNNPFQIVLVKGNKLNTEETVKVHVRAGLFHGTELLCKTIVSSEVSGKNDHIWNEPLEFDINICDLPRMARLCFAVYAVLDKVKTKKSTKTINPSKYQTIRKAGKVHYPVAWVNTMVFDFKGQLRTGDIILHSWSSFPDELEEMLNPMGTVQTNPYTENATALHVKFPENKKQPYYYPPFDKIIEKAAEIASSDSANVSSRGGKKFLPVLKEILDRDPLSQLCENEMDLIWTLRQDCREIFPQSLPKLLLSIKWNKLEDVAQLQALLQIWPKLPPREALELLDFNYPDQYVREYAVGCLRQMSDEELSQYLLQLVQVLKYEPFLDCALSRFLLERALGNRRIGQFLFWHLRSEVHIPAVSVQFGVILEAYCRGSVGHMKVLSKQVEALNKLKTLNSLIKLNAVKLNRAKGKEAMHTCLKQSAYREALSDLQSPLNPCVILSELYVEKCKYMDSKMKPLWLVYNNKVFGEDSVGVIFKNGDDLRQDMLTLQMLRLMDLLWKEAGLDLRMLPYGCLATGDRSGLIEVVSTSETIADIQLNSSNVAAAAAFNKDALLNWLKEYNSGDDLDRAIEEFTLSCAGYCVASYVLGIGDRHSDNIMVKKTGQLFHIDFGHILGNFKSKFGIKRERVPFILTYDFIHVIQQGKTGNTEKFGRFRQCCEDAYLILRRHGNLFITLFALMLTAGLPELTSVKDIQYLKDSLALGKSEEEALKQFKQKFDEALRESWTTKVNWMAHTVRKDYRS
assay name: KINOMEscan competition binding
test conditions: compound 10.0 µM
As shown below, each of these compounds has a reported kinase still bound, per cent of control value.
Please state the figure in %; there is no need to write the unit.

Solved cases below.
- smiles notation: "CC(=O)c1c(C)c2cnc(Nc3ccc(N4CCNCC4)cn3)nc2n(C2CCCC2)c1=O"
  tested system: "UniProt:P42338"
  units: "%"
  kinase still bound, per cent of control: 7.3
- smiles notation: "Cc1cn(-c2cc(C(=O)Nc3ccc(C)c(NC(=O)c4ccno4)c3)cc(C(F)(F)F)c2)cn1"
  tested system: "UniProt:P42338"
  units: "%"
  kinase still bound, per cent of control: 100
- smiles notation: "COc1cc2c(Nc3ccc(NC(=O)c4ccccc4)cc3)ncnc2cc1OCCCN1CCOCC1"
  tested system: "UniProt:P42338"
  units: "%"
  kinase still bound, per cent of control: 81
- smiles notation: "CCc1nc(-c2cccc(C)c2)c(-c2ccnc(NC(=O)c3ccccc3)c2)s1"
  tested system: "UniProt:P42338"
  units: "%"
  kinase still bound, per cent of control: 95

Turning now to a further compound:
**Q:** What measured kinase still bound, per cent of control goes with C=CC(=O)Nc1ccc(C(=O)c2sc(Nc3ccc(N4CCN(C)CC4)cc3OC)nc2N)cc1 ?
**A:** 86

----------
tested system: AKT3 (human)
assay name: KINOMEscan competition binding
test conditions: compound 10.0 µM
value type: kinase still bound, per cent of control (%)
Give the quantity in %, number only.

**Q:** Please look up its kinase still bound, per cent of control: O=c1[nH]c2ccccc2n1C1CCN(Cc2ccc(-c3nc4cc5[nH]cnc5cc4nc3-c3ccccc3)cc2)CC1
**A:** 100

----------
tested system: CDK18 (human) (UniProt Q07002)
Sequence (Q07002 whole entry, looked up): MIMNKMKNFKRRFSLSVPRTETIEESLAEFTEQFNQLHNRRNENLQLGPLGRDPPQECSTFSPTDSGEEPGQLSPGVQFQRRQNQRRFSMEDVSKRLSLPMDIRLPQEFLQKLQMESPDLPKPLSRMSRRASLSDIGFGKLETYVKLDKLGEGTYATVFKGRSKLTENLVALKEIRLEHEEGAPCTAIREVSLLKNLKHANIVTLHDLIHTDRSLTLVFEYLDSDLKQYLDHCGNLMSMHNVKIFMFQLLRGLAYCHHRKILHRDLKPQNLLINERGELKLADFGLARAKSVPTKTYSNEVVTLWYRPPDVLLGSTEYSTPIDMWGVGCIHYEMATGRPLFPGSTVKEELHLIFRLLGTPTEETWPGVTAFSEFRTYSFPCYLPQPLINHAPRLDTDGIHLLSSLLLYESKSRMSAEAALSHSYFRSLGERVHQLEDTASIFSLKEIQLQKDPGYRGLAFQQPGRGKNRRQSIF
assay name: KINOMEscan competition binding
test conditions: compound 10.0 µM
Form field: kinase still bound, per cent of control (one value per entry).
The response must be a number in % with no trailing unit.

The examples below pair each entry with its known result.
- compound: "CC(=O)c1c(C)c2cnc(Nc3ccc(N4CCNCC4)cn3)nc2n(C2CCCC2)c1=O"
  units: "%"
  value measured: 20
- compound: "COc1ccc(N(C(=O)Oc2cc(C(=O)Nc3cccc(C(F)(F)F)c3)ccc2C)c2ccnc(Nc3ccc(N4CCN(C)CC4)cc3)n2)c(OC)c1"
  units: "%"
  value measured: 100
- compound: "N#C/C(=C1/Nc2ccccc2S1)c1ccnc(NCCc2cccnc2)n1"
  units: "%"
  value measured: 92
- compound: "CCc1nc(-c2cccc(C)c2)c(-c2ccnc(NC(=O)c3ccccc3)c2)s1"
  units: "%"
  value measured: 96
- compound: "COc1cc2c(Nc3ccc(NC(=O)c4ccccc4)cc3)ncnc2cc1OCCCN1CCOCC1"
  units: "%"
  value measured: 75
- compound: "Cc1cn(-c2cc(C(=O)Nc3ccc(C)c(NC(=O)c4ccno4)c3)cc(C(F)(F)F)c2)cn1"
  units: "%"
  value measured: 100

**Q:** Entry CCN(CCO)CCCOc1ccc2c(Nc3cc(CC(=O)Nc4cccc(F)c4)[nH]n3)ncnc2c1 : reported kinase still bound, per cent of control = ?
**A:** 62

**Q:** For the compound COc1cc(N2CCC(C(N)=O)CC2)ccc1Nc1nc(N)c(Cl)c(Nc2ccccc2S(=O)(=O)C(C)C)n1 , what kinase still bound, per cent of control is on record?
**A:** 100

**Q:** Name the recorded kinase still bound, per cent of control for COc1cc(C)c(Sc2cnc(NC(=O)c3ccc(CNC(C)C(C)C)cc3)s2)cc1C(=O)N1CCN(C(C)=O)CC1 (centres undefined) .
**A:** 100

----------
tested system: MAPK4 (human)
assay name: KINOMEscan competition binding
test conditions: compound 10.0 µM
Here, each record is paired with measured kinase still bound, per cent of control data.

Please review the entries below; each comes with its answer.
- smiles notation: "Cc1cn(-c2cc(C(=O)Nc3ccc(C)c(NC(=O)c4ccno4)c3)cc(C(F)(F)F)c2)cn1"
  tested system: "MAPK4 (human)"
  kinase still bound, per cent of control: "100%"
- smiles notation: "CCN1CCN(Cc2ccc(NC(=O)c3ccc(C)c(/C=C/c4cnc5[nH]ccc5c4OC)c3)cc2C(F)(F)F)CC1"
  tested system: "MAPK4 (human)"
  kinase still bound, per cent of control: "100%"
- smiles notation: "CCc1nc(-c2cccc(C)c2)c(-c2ccnc(NC(=O)c3ccccc3)c2)s1"
  tested system: "MAPK4 (human)"
  kinase still bound, per cent of control: "90%"
- smiles notation: "COc1cc(N2CCC(C(N)=O)CC2)ccc1Nc1nc(N)c(Cl)c(Nc2ccccc2S(=O)(=O)C(C)C)n1"
  tested system: "MAPK4 (human)"
  kinase still bound, per cent of control: "100%"

**Q:** Item under review: CCOc1cc(N2CCC(O)CC2)ccc1Nc1ncc2c(n1)N(C)c1ccccc1C(=O)N2C . Reported kinase still bound, per cent of control?
**A:** 100%

**Q:** Please report the recorded kinase still bound, per cent of control for CCCS(=O)(=O)Nc1ccc(F)c(C(=O)c2c[nH]c3ncc(Cl)cc23)c1F .
**A:** 100%

**Q:** Name the reported kinase still bound, per cent of control value associated with the molecule N#Cc1cc(-c2ccnc(Nc3ccc(-n4cnc(-c5cccnc5)n4)cc3)n2)cc(N2CCOCC2)c1
**A:** 5%

**Q:** What kinase still bound, per cent of control value was documented for this molecule, CC(=O)c1c(C)c2cnc(Nc3ccc(N4CCNCC4)cn3)nc2n(C2CCCC2)c1=O ?
**A:** 87%

**Q:** # kinase still bound, per cent of control lookup, item CCN(CCO)CCCOc1ccc2c(Nc3cc(CC(=O)Nc4cccc(F)c4)[nH]n3)ncnc2c1
**A:** 100%

----------
tested system: CDK14 (human)
assay name: KINOMEscan competition binding
test conditions: compound 10.0 µM
value type: kinase still bound, per cent of control (%)
Answer format: numeric, % implied, no suffix.

Solved entries:
- compound: "CCCS(=O)(=O)Nc1ccc(F)c(C(=O)c2c[nH]c3ncc(Cl)cc23)c1F"
  value type: "kinase still bound, per cent of control"
  units: "%"
  value measured: 100
- compound: "CCOc1cc(N2CCC(O)CC2)ccc1Nc1ncc2c(n1)N(C)c1ccccc1C(=O)N2C"
  value type: "kinase still bound, per cent of control"
  units: "%"
  value measured: 100
- compound: "CCN(CCO)CCCOc1ccc2c(Nc3cc(CC(=O)Nc4cccc(F)c4)[nH]n3)ncnc2c1"
  value type: "kinase still bound, per cent of control"
  units: "%"
  value measured: 100

**Q:** Fill in the recorded kinase still bound, per cent of control for this compound, with CDK14 (human) as test system: CC(=O)c1c(C)c2cnc(Nc3ccc(N4CCNCC4)cn3)nc2n(C2CCCC2)c1=O
**A:** 5

**Q:** Please tell me: kinase still bound, per cent of control of N#C/C(=C1/Nc2ccccc2S1)c1ccnc(NCCc2cccnc2)n1 , system CDK14 (human)?
**A:** 100

**Q:** Please tell me: kinase still bound, per cent of control of CCc1nc(-c2cccc(C)c2)c(-c2ccnc(NC(=O)c3ccccc3)c2)s1 , system CDK14 (human)?
**A:** 99

**Q:** Form: Entry = COc1cc2ncnc(Nc3cccc(Cl)c3)c2cc1OC | System = CDK14 (human) | kinase still bound, per cent of control = ____
**A:** 88

**Q:** Enter reported kinase still bound, per cent of control observed with CDK14 (human) for COc1cc(C)c(Sc2cnc(NC(=O)c3ccc(CNC(C)C(C)C)cc3)s2)cc1C(=O)N1CCN(C(C)=O)CC1 (stereo not given)
**A:** 100

**Q:** Lab request: please report kinase still bound, per cent of control under test system CDK14 (human) for CCN1CCN(Cc2ccc(NC(=O)c3ccc(C)c(/C=C/c4cnc5[nH]ccc5c4OC)c3)cc2C(F)(F)F)CC1
**A:** 72

**Q:** Please tell me: kinase still bound, per cent of control of C=CC(=O)Nc1ccc(C(=O)c2sc(Nc3ccc(N4CCN(C)CC4)cc3OC)nc2N)cc1 , system CDK14 (human)?
**A:** 82
